Measured values drawn from patent US20230014722A1 for this set.

Can you tell me pIC50 for the items I'm about to list?
system_name: T1, mouse PD-1 on transfected 293F cells (mouse, UniProt Q02242 25-288)
T1 construct: whole, on cells; also called cell surface mouse PD-1
T1 sequence (looked up): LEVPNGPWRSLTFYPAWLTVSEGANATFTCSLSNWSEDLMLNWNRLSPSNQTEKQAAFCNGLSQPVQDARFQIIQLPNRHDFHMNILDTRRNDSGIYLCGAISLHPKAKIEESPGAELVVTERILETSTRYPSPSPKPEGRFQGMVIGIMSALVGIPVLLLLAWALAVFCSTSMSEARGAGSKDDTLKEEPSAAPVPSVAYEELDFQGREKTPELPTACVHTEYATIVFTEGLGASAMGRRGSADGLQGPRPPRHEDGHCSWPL
run_description: FACS blocking assay: mouse Fc fusion-mouse PD-L1 binding to mouse PD-1 transfected 293F cells
The quantity pIC50 is defined as the negative base-10 logarithm of the molar concentration.

Fill in reported pIC50 for this entry: 2C2 (antibody, human IgG4, V domains shown) VH: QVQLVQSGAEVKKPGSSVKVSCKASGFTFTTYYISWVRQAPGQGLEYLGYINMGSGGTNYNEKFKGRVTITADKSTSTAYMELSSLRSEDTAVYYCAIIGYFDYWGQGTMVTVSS VL: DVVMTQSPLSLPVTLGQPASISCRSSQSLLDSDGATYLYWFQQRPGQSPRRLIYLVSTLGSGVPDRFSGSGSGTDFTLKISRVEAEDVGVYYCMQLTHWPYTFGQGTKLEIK 7.78

Hello, please tell me recorded pIC50 for this one: 1H6 (antibody, human IgG4, V domains shown) VH: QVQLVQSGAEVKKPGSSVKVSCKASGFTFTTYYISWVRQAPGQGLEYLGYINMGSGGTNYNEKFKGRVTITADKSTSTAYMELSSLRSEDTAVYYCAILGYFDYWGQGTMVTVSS VL: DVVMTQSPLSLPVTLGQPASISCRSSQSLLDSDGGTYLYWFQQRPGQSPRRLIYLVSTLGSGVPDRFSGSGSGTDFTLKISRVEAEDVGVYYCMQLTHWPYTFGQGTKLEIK 7.69

Fill in reported pIC50 for this entry: 2G4 (antibody, human IgG4, V domains shown) VH: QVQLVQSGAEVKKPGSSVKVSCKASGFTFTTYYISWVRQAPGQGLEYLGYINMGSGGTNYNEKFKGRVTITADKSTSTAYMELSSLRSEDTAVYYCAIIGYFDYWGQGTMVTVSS VL: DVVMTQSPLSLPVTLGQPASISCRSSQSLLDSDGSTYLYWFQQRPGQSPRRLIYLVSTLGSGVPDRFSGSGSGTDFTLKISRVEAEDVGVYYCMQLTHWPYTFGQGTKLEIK 7.73

Identify measured pIC50 associated with 2E5 (antibody, human IgG4, V domains shown) VH: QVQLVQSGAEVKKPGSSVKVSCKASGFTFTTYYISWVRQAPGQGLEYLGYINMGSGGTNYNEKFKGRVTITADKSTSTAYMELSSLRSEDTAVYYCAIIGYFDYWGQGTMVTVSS VL: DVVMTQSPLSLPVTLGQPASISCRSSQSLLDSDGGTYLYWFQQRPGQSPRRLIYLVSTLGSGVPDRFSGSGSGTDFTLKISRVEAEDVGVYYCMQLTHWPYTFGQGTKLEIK 7.89
